# test.system: insulin (Homo sapiens)
# Construct: purchased Roche 1376497
# Sequence (P01308 25-54 limits assumed): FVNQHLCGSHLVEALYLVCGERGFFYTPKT
# Sequence (P01308 90-110 limits assumed): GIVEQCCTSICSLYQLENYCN
# run.description: Kinetic analysis using surface plasmon resonance (Biacore T200), immobilized insulin
# Assay type: binding
# measurement.setup: Table 7; MGSSHHHHHHGSS-[Y#####]-A
recorded.metric: pKd
To interpret pKd, take it as minus log10 of a concentration measured in moles per litre.

Solved cases below.
Asked: If you can, please state the reported pKd value of Y00345: insulin binding Y variant from Ylib002Naive.I, SEQ ID NO:138 (LAEAKEAAIAELDSKGVGAYQIKFIQVAKTVEAVQAIKQAILADLPA; Engineered insulin binding Y variant) .
Given back: 7.21

Asked: If you can, please state the reported pKd value of Y00301: insulin binding Y variant from Ylib002Naive.I, SEQ ID NO:133 (LAEAKEAAIAELDSKGVGARQIKWIQQAKSVEVVQWLKQAILADLPA; Engineered insulin binding Y variant) .
Given back: 9.03

Asked: If you can, please state the reported pKd value of Y00304: insulin binding Y variant from Ylib002Naive.I, SEQ ID NO:134 (LAEAKEAAIAELDSKGVGAYQIKFIQVAHDVEEVQILKQAILADLPA; Engineered insulin binding Y variant) .
Given back: 7.68

Now for a further substance.
Asked: If you can, please state the reported pKd value of Y00358: insulin binding Y variant from Ylib002Naive.I, SEQ ID NO:142 (LAEAKEAAIAELDSKGVGAAKIKWIQDAKSVETVQFLKQAILAELPA; Engineered insulin binding Y variant) .
Given back: 8.00
